Data provenance is patent US20160297830A1.

Hi! I'm sharing some MIC results obtained with H. influenza Hi4 efflux pump KO.

{"compound": "COC[C@@H]1[C@@H](O)[C@@H]2[C@H]3C=C[C@@H]4[C@@H](COC)C(=O)O[C@H]([C@H](O)COC)[C@H](C)/C=C(\\C)[C@@]24O[C@H]3[C@@H]1OC(=O)c1cc(Br)c(Br)o1", "reading_unit": "µg/mL", "MIC": 32}
{"compound": "COCC(=NO)[C@H]1OC(=O)[C@H](COC)[C@H]2C=C[C@H]3[C@H]4O[C@]2(/C(C)=C/[C@H]1C)[C@@H]3[C@H](O)[C@@H](COC)[C@H]4OC(=O)c1ccc[nH]1", "reading_unit": "µg/mL", "MIC": 1}
{"compound": "COC[C@@H]1[C@@H](O)[C@@H]2[C@H]3C=C[C@@H]4[C@@H](COC)C(=O)O[C@H]([C@H](O)COC)[C@H](C)/C=C(\\C)[C@@]24O[C@H]3[C@@H]1OC(=O)c1cnco1", "reading_unit": "µg/mL", "MIC": 64}
{"compound": "COC[C@@H]1[C@@H](O)[C@@H]2[C@H]3C=C[C@@H]4[C@@H](COC)C(=O)O[C@H]([C@H](O)COC)[C@H](C)/C=C(\\C)[C@@]24O[C@H]3[C@@H]1OC(=O)c1cc(Br)c(Br)[nH]1", "reading_unit": "µg/mL", "MIC": 8}
{"compound": "COC[C@H]1[C@@H](O)[C@@H]2O[C@@]34/C(C)=C/[C@@H](C)[C@@H]([C@H](O)COC)OC(=O)[C@H](COC)[C@H]3CC[C@@H]2[C@H]4[C@@H]1O [Compound 15, 4,5-Dihydro-branimycin]", "reading_unit": "µg/mL", "MIC": 64}
